experiment: Probe fluorescence ratio response to linolenic acid relative to ADIFAB2; type: binding; conditions: response relative to ADIFAB2
assay readout: DR/DR LNA
Answers are plain numbers.

Below: 5 molecules and their reported DR/DR LNA.
40Y3, L72A (protein, listed as Rattus norvegicus, PEPTIDE (1)...(131) wild-type rat intestinal fatty acid binding protein) AFDGTWKVDRNENYEKFMEKMGINVVKRKLGAHDNLKLTYTQEGNKFTVKESSNFRNIDVVFELGVDFAYSAADGTELTGTWTMEGNKLVGKFKRVDNGKELIAVREISGNELIQTYTYEGVEAKRIFKKE    0.49
14F, 72A (protein, listed as Rattus norvegicus, PEPTIDE (1)...(131) wild-type rat intestinal fatty acid binding protein) AFDGTWKVDRNENFEKFMEKMGINVVKRKLGAHDNLKLTITQEGNKFTVKESSNFRNIDVVFELGVDFAYSAADGTELTGTWTMEGNKLVGKFKRVDNGKELIAVREISGNELIQTYTYEGVEAKRIFKKE    0.88
14L 38M 72A 117F (protein, listed as Rattus norvegicus, PEPTIDE (1)...(131) wild-type rat intestinal fatty acid binding protein) AFDGTWKVDRNENLEKFMEKMGINVVKRKLGAHDNLKMTITQEGNKFTVKESSNFRNIDVVFELGVDFAYSAADGTELTGTWTMEGNKLVGKFKRVDNGKELIAVREISGNELIQTFTYEGVEAKRIFKKE    0.921
38N1, 72A (protein, listed as Rattus norvegicus, PEPTIDE (1)...(131) wild-type rat intestinal fatty acid binding protein) AFDGTWKVDRNENYEKFMEKMGINVVKRKLGAHDNLKNTITQEGNKFTVKESSNFRNIDVVFELGVDFAYSAADGTELTGTWTMEGNKLVGKFKRVDNGKELIAVREISGNELIQTYTYEGVEAKRIFKKE    1.14
106S2, 72A (protein, listed as Rattus norvegicus, PEPTIDE (1)...(131) wild-type rat intestinal fatty acid binding protein) AFDGTWKVDRNENYEKFMEKMGINVVKRKLGAHDNLKLTITQEGNKFTVKESSNFRNIDVVFELGVDFAYSAADGTELTGTWTMEGNKLVGKFKRVDNGKELIAVSEISGNELIQTYTYEGVEAKRIFKKE    0.40

Could you now consider this next molecule?
Give its DR/DR LNA value. Item: 72S 73W 74E (protein, listed as Rattus norvegicus, PEPTIDE (1)...(131) wild-type rat intestinal fatty acid binding protein) AFDGTWKVDRNENYEKFMEKMGINVVKRKLGAHDNLKLTITQEGNKFTVKESSNFRNIDVVFELGVDFAYSSWEGTELTGTWTMEGNKLVGKFKRVDNGKELIAVREISGNELIQTYTYEGVEAKRIFKKE
4.799
